STUDY_TARGET: T1, human HER2 expressed on tumor cells (human, UniProt P04626 23-1255)
T1 construct: whole, on cells; Cell line is named in each row's assay
METHOD_SUMMARY: flow cytometry, RT-112 cells
EC50: recorded values
The response must be a number in µg/mL with no trailing unit.

EC50 for Hu2117HK (Fc fusion, Hu2117-H1 + Hu2117-K1; also called hu2117-H1K1; humanized single-chain antibody Hu2117HK; not shown: human IgG1 Fc) scFv: EVQLVESGGGLVQPGGSLRLSCAASGFTYSSYGMSWVRQAPGKGLEWVASISGGGSYTKYPDSVKGRFTISRDNSKNTLYLQMNSLRAEDTAVYYCARDYAGFFDVWGQGTLVTVSSGGGGSGGGGSGGGGSDIQMTQSPSSLSASVGDRVTITCRSSQSLVHSNGNTYLHWYQQKPGKAPKLLIYKVSNRFSGVPSRFSGSGSGTDFTLTISSLQPEDFATYFCSQSTHVPYTFGQGTKVEIK ? 0.0593

Quick one: EC50 for Hu2117-HK303 (Fc fusion, scFv-hIgG1 Fc; not shown: human IgG1 Fc) scFv: EVQLVESGGGLVQPGGSLRLSCAASGFTYSSYGMSWVRQAPGKGLEWVASISGGGNYAKYVESVKGRFTISRDNSKNTLYLQMNSLRAEDTAVYYCARDYVGFFDVWGQGTLVTVSSGGGGSGGGGSGGGGSDIQMTQSPSSLSASVGDRVTITCRSSQSLVHSNRNTYLHWYQQKPGKAPKLLIYKVSNRFSGVPSRFSGSGSGTDFTLTISSLQPEDFATYFCSQSTHVPYTFGQGTKVEIK ? 0.129

Here is the next item to consider.
What does the record list as EC50 for Hu2117-HK304 (Fc fusion, scFv-hIgG1 Fc; not shown: human IgG1 Fc) scFv: EVQLVESGGGLVQPGGSLRLSCAASGFTYSSYGMSWVRQAPGKGLEWVASISGGGNYAKYVPSVKGRFTISRDNSKNTLYLQMNSLRAEDTAVYYCARDYVGFFDVWGQGTLVTVSSGGGGSGGGGSGGGGSDIQMTQSPSSLSASVGDRVTITCRSSQSLVHSNRNTYLHWYQQKPGKAPKLLIYKVSNRFSGVPSRFSGSGSGTDFTLTISSLQPEDFATYFCSQSTHVPYTFGQGTKVEIK ? 0.0622
